B1: FAM116A (parent)
chain: TVHEVDIFRCFCPVFLHSQMLWEL

Variants of: B1
protocol_details: protein stability index of a GFP-peptide fusion (GPS, HEK-293T) (PSI 1-6); higher = more stable;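 further: lentivirally expressed fusions sorted by FACS into six bins by GFP to DsRed ratio, PSI derived from sequencing read proportions per bin multiplied by bin number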
conditions: c terminus: a fixed tail appended
outcome_measure: protein stability index
API doc: respond with a numeric literal and nothing else, no unit.

# protein stability index (variant: F8C ) is 2.96

# protein stability index (variant: W22G ) is 3.08

# protein stability index (variant: L24Y ) is 3.09

# protein stability index (variant: C10R ) is 2

# protein stability index (variant: V2A ) is 1.77

# protein stability index (variant: R9D ) is 2.96

# protein stability index (variant: F11Q ) is 1.64

# protein stability index (variant: C10T ) is 1.93

# protein stability index (variant: C12M ) is 2.97
